Molecular target: GppNHp-KRAS G12D mutant protein (Homo sapiens, UniProt P01116, G12D)
Construct: purchased Daegu Gyeongbuk Medical Innovation Foundation (DGMIF), made to order
Assay: Differential scanning fluorimetry (DSF) binding affinity to GppNHp-KRAS G12D mutant protein
Conditions: DSF thermal shift, 10 μM compound, 4 μg KRAS protein, 50 mM HEPES (pH 7.5)

| Compound | GppNHp-KRAS G12D (ΔTmD, ° C.) |
| --- | --- |
| C#Cc1c(F)ccc2cc(N)cc(-c3c(F)c4nc(OC[C@@]56CCCN5C[C@H](F)C6)nc(N5C[C@H]6CC[C@@H](C5)N6)c4c4cc(C)oc34)c12 | 5.76 °C |
| Cc1cc2c(o1)c(-c1cc(O)cc3ccccc13)c(F)c1nc(OC[C@@]34CCCN3C[C@H](F)C4)nc(N3C[C@H]4CC[C@@H](C3)N4)c12 | 4.27 °C |
| C#Cc1c(F)ccc2cccc(-c3c(F)c4nc(OC[C@@]56CCCN5C[C@H](F)C6)nc(N5C[C@H]6CC[C@@H](C5)N6)c4c4cn(C)nc34)c12 | 3.26 °C |
| C#Cc1c(F)ccc2cc(N)cc(-c3cc4nc(OC[C@@]56CCCN5C[C@H](F)C6)nc(N5C[C@H]6CC[C@@H](C5)N6)c4n4ccnc34)c12 | 2.07 °C |
| C#Cc1c(F)ccc2cc(N)cc(-c3c(F)c4nc(OC[C@@]56CCCN5CC(=C(F)F)C6)nc(N5C[C@H]6CC[C@@H](C5)N6)c4c4cn(C)nc34)c12 | 7.27 °C |
| C#Cc1c(F)ccc2cc(O)cc(-c3cc4nc(OCC5(CN6CCO[C@H](C)C6)CC5)nc(N5C[C@H]6CC[C@@H](C5)N6)c4n4ccnc34)c12 | 2.49 °C |
| Cc1cc2c(o1)c(-c1nc(N)ccc1C(F)(F)F)c(F)c1nc(OC[C@@]34CCCN3C[C@H](F)C4)nc(N3C[C@H]4CC[C@@H](C3)N4)c12 | −0.31 °C |
| C#Cc1c(F)ccc2cc(O)cc(-c3cc4nc(OC[C@@]56CCCN5CC(=C(F)F)C6)nc(N5C[C@H]6CC[C@@H](C5)N6)c4n4ccnc34)c12 | 5.76 °C |
| C#Cc1c(F)ccc2cc(O)cc(-c3cc4nc(OC[C@]56CCCN5CC(=C)C6)nc(N5C[C@H]6CC[C@@H](C5)N6)c4n4ccnc34)c12 | 3.59 °C |
| C#Cc1c(F)ccc2cc(N)cc(-c3cc4nc(OC[C@@]56CCCN5C[C@H](F)C6)nc(N5[C@@H]6CC[C@H]5CNC6)c4n4ccnc34)c12 | 4.73 °C |
| C#Cc1c(F)ccc2cc(O)cc(-c3c(F)c4nc(OC[C@@]56CCCN5C/C(=C\F)C6)nc(N5C[C@H]6CC[C@@H](C5)N6)c4c4cc(C)oc34)c12 | 11.39 °C |
| C#Cc1c(F)ccc2cc(O)cc(-c3cc4nc(OCC5(CN6CCC7(CC6)CC7(F)F)CC5)nc(N5C[C@H]6CC[C@@H](C5)N6)c4n4ccnc34)c12 | 3.39 °C |
| C#Cc1c(F)ccc2cc(O)cc(-c3cc4nc(OCC5(CN6CCOC[C@H]6C)CC5)nc(N5C[C@H]6CC[C@@H](C5)N6)c4n4ccnc34)c12 | 3.39 °C |
| Cc1cc2c(o1)c(-c1ccc(F)c3sc(N)c(C#N)c13)c(F)c1nc(OC[C@@]34CCCN3C[C@H](F)C4)nc(N3C[C@H]4CC[C@@H](C3)N4)c12 | 8.57 °C |
| C#Cc1c(F)ccc2cc(O)cc(-c3c(F)c4nc(OC[C@@]56CCCN5C/C(=C\F)C6)nc(N5C[C@H]6CC[C@@H](C5)N6)c4c4cn(C)nc34)c12 | 12.28 °C |
| Oc1cc(-c2cc3nc(OC[C@@]45CCCN4C[C@H](F)C5)nc(N4C[C@H]5CC[C@@H](C4)N5)c3n3ccnc23)c2c(F)c(F)ccc2c1 | 1.90 °C |
| C#Cc1c(F)ccc2cc(O)cc(-c3cc4nc(OCC5(CN6CCCC6)CC5)nc(N5[C@@H]6CC[C@H]5CNC6)c4n4ccnc34)c12 | 4.71 °C |
| C#Cc1c(F)ccc2cc(O)cc(-c3cc4nc(OCC5(CN6C[C@@H]7C[C@H]6CO7)CC5)nc(N5C[C@H]6CC[C@@H](C5)N6)c4n4ccnc34)c12 | 2.65 °C |
| Cc1cc2c(o1)c(-c1cccc3sc(N)nc13)c(F)c1nc(OC[C@@]34CCCN3C[C@H](F)C4)nc(N3CC4CCC(C3)N4)c12 | 1.61 °C |
| C#Cc1c(F)ccc2cc(O)cc(-c3c(F)c4nc(OC[C@@]56CCCN5CC(=C(F)F)C6)nc(N5CC6CCC(C5)N6)c4c4cc(C)oc34)c12 | 9.45 °C |
| C#Cc1c(F)ccc2cc(O)cc(-c3c(F)c4nc(OC[C@@]56CCCN5CC(=C(F)F)C6)nc(N5CC6CCC(C5)N6)c4c4cn(C)nc34)c12 [Example 92] | 13.02 °C |
| CCc1c(F)ccc2cc(O)cc(-c3cc4nc(OC[C@@]56CCCN5CC(=C(F)F)C6)nc(N5[C@@H]6CC[C@H]5CNC6)c4n4ccnc34)c12 | 4.32 °C |
| Cn1cc2c(n1)c(-c1cc(O)cc3ccc(F)c(F)c13)cc1nc(OC[C@@]34CCCN3C/C(=C\F)C4)nc(N3C[C@H]4CC[C@@H](C3)N4)c12 | 4.13 °C |
